test system: SF-295 CNS; test: NCI tumour cell line growth inhibition, 48 h
quantity: TGI

INPUT: I'm curious: which TGI was measured for CCOC(=O)OC1C(Br)C2CCC1(C)C2(C)C (centres undefined) tested on SF-295 CNS?
OUTPUT: 29.5 µM

====

Below is a list of entries, each paired with its recorded TGI value.
system: RPMI-8226 leukemia; test: NCI tumour cell line growth inhibition, 48 h
Your answer is read as µM, so omit the unit and give the number.

See these solved cases before continuing.
INPUT: Can you look up the measured TGI of `O=C(/C=C/c1ccccn1)c1ccc(OCc2nnc(-c3ccc(Cl)cc3)o2)cc1` for me?
OUTPUT: 1.06

INPUT: TGI lookup needed for `COc1ccc(OC)c(/C=C2\CCc3ccccc3C2=O)c1` , thanks.
OUTPUT: 19.6

INPUT: Please look up its TGI: `O=C(NCCOCCOCCOCCNC(=O)c1cc2c(o1)C(=O)c1ccccc1C2=O)NC12CC3CC(CC(C3)C1)C2`
OUTPUT: 5.63

Lab note: next molecule to report on.
INPUT: What does the data say about its TGI? Entry: `COc1ccc2c(O)c(/C=C3\N=Nc4ncccc43)oc2c1C[C@@H]1CCNC[C@H]1F`
OUTPUT: 0.984

====

tested on: HCC-2998 colon; assay: NCI tumour cell line growth inhibition, 48 h
Quick reference: TGI of the listed items.

Example results:
INPUT: I am curious: what TGI value has been reported for `COc1ccc(C(=O)c2cc3c(N)c(C(=O)Nc4cccc(Br)c4C)sc3nc2C)cc1` ?
OUTPUT: > 100 µM

INPUT: Given the entry O=C1CCC2c3ccccc3NCN12 (stereo not drawn) , report its measured TGI.
OUTPUT: > 100 µM

We now examine a further compound.
INPUT: Give the measured TGI of CCOC(=O)CCC(NC(=O)c1ccc(Oc2nc3c(N)cc(C(F)(F)F)cc3nc2-c2ccccc2)cc1)C(=O)OCC (stereo not drawn) .
OUTPUT: > 100 µM

====

system: OVCAR-3 ovarian; test: NCI tumour cell line growth inhibition, 48 h
Let's look at some compounds and their measured TGI.

INPUT: Sample `O=C(Nc1cc(Cl)cc(Cl)c1)c1cccc(NC2=C(Cl)C(=O)N(Cc3ccccc3)C2=O)c1` — what was its TGI?
OUTPUT: > 100 µM

INPUT: So what's the measured TGI for this one? `O=C(N/C(=C\c1ccccc1O)c1nc2ccccc2[nH]1)c1ccccc1`
OUTPUT: > 100 µM

INPUT: Entry `CC(C)OC/N=C(/N)NC#N` : reported TGI = ?
OUTPUT: > 100 µM

Lab note: next compound to report on.
INPUT: Fill blank: measured TGI of the compound Cc1ccc(S(=O)(=O)N/N=C2\CCC3(O)CC2(C)CCC2C3CC2(C)C)cc1 (centres undefined) is ____.
OUTPUT: > 100 µM

====

tested on: A498 renal; assay: NCI tumour cell line growth inhibition, 48 h
The entries below are paired with their reported TGI.

In the examples that follow, each entry is paired with its recorded TGI.
INPUT: Name the reported TGI value associated with the compound `Cn1c(=O)c(Oc2ccc(F)cc2F)cc2cnc(N[C@@H]3CCOC3)nc21`
OUTPUT: > 25 µM

INPUT: Which TGI value is on record for `Nc1nc2c(-c3ccc([N+](=O)[O-])cc3)nnn2c2ccccc12` ?
OUTPUT: > 100 µM

INPUT: Using the record for `CC(C)OC/N=C(/N)NC#N` , report its TGI.
OUTPUT: > 100 µM

INPUT: Fill blank: measured TGI of the compound `O=C(N/C(=C\c1ccccc1O)c1nc2ccccc2[nH]1)c1ccccc1` is ____.
OUTPUT: > 100 µM

// next entry
INPUT: # query: TGI of entry `CCC/C(Cl)=N/OC(NC(=O)OCC)(C(F)(F)F)C(F)(F)F`
OUTPUT: > 100 µM
